Molecular target: CRAF^SSDD (Homo sapiens, UniProt P04049, Y340D/Y341D)
Sequence (P04049 308-648 Y340D/Y341D): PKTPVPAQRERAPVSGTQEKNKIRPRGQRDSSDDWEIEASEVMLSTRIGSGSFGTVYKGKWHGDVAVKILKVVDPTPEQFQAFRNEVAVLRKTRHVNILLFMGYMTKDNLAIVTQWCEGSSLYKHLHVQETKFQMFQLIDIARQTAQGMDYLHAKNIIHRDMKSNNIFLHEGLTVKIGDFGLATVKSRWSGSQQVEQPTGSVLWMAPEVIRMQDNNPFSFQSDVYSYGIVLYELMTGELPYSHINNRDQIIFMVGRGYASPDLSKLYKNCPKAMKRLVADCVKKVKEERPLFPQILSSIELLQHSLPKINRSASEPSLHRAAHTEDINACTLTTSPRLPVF
Sequence (Q02750 whole entry S218A/S222A partner): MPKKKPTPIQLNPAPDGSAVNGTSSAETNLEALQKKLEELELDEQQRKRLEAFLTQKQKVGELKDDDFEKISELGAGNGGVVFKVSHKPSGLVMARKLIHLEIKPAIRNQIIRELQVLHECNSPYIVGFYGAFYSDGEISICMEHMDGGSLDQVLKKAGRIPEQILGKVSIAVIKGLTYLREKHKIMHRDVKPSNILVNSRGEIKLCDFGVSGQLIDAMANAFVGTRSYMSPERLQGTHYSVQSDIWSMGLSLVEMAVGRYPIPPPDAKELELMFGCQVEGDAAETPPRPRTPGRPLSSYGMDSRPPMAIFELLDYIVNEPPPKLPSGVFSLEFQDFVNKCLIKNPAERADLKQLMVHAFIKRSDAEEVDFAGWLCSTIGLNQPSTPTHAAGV
Test: TR-FRET kinase inhibition assay (MEK1 activation loop phosphorylation), CRAF^SSDD dimer
reported.endpoint: IC50 (nM)

>  <test.smiles>
Cc1ccc(NC(=O)c2ccnc(C(F)(F)F)c2)cc1-c1cc(OCCO)nc(N2CCOCC2)c1

>  <measured>
3.64

$$$$

###

Biological target: CRAF^SSDD (Homo sapiens, UniProt P04049, Y340D/Y341D)
Experiment: TR-FRET kinase inhibition assay (MEK1 activation loop phosphorylation), CRAF^SSDD dimer

>  <test.smiles>
Cc1ccc(NC(=O)c2ccnc(C(F)(F)F)c2)cc1-c1cc(OCCO)nc(N2CCOCC2)c1

>  <Ki>
0.01 nM

$$$$

###

Molecular target: BRAF^V600E (Homo sapiens, UniProt P15056, V600E)
Sequence (P15056 445-723 V600E): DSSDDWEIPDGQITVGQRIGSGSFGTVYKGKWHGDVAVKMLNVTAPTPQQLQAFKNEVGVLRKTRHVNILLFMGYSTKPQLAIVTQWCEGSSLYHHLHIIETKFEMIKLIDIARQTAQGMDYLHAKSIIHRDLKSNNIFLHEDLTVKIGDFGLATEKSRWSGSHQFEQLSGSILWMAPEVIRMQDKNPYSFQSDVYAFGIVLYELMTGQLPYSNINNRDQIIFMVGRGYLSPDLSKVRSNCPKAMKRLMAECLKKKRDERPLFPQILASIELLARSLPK
Sequence (Q02750 whole entry S218A/S222A partner): as the sequence (Q02750 whole entry S218A/S222A partner) above
Experiment: TR-FRET kinase inhibition assay (MEK1 activation loop phosphorylation), BRAF^V600E monomer

>  <compound>
Cc1ccc(NC(=O)c2ccnc(C(F)(F)F)c2)cc1-c1cc(OCCO)nc(N2CCOCC2)c1 [Naporafenib]

>  <unit>
nM

>  <Ki>
2.04

$$$$

###

Biological target: CRAF^WT (Homo sapiens, UniProt P04049)
Experiment: TR-FRET kinase inhibition assay (MEK1 activation loop phosphorylation), CRAF^WT dimer
reported.endpoint: Ki

>  <test.smiles>
Cc1ccc(NC(=O)c2ccnc(C(F)(F)F)c2)cc1-c1cc(OCCO)nc(N2CCOCC2)c1

>  <reported.endpoint>
Ki

>  <measured>
0.04 nM

$$$$

###

Biological target: BRAF^WT (Homo sapiens, UniProt P15056)
Sequence (P15056 419-766, one chain of several): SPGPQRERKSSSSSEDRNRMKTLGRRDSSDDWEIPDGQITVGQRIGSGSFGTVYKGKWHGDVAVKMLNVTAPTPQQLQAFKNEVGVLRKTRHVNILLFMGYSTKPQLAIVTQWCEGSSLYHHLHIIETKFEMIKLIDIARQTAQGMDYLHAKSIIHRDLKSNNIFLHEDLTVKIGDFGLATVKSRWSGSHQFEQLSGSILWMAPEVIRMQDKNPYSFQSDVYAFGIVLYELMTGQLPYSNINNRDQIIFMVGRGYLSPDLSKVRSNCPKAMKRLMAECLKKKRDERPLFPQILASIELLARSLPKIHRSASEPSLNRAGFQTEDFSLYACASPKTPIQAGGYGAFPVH
Assay: TR-FRET kinase inhibition assay (MEK1 activation loop phosphorylation), BRAF^WT dimer
pIC50: −log10 of the molar value.

>  <test.smiles>
Cc1ccc(NC(=O)c2ccnc(C(F)(F)F)c2)cc1-c1cc(OCCO)nc(N2CCOCC2)c1

>  <pIC50>
7.87

$$$$
